Quick list: IC50 at 24 h per entry.
test: in vitro; settings: human

- MOLECULE: "O=S(=O)(Nc1cnccn1)c1ccc2ncccc2c1 [Compound 14a, N-(pyrazin-2-yl)quinoline-6-sulfonamide]"
  IC50 at 24 h: "> 250 µM"
- MOLECULE: "Cc1cc(C)cc(S(=O)(=O)Nc2cnccn2)c1 [Compound 8a]"
  IC50 at 24 h: "> 500 µM"
- MOLECULE: "Cc1cc(C)c(S(=O)(=O)Nc2cncc(Cl)n2)c(C)c1 [Compound 9b]"
  IC50 at 24 h: "180 µM"
- MOLECULE: "O=S(=O)(Nc1cnccn1)c1ccc2c(c1)OCCO2 [Compound 11a]"
  IC50 at 24 h: "> 1000 µM"
- MOLECULE: "O=S(=O)(Nc1cncc(Cl)n1)c1ccc2ccccc2c1 [Compound 13b]"
  IC50 at 24 h: "> 1000 µM"
- MOLECULE: "O=S(=O)(Nc1cnccn1)c1ccc2ccccc2c1 [Compound 13a]"
  IC50 at 24 h: "> 500 µM"
- MOLECULE: "O=[N+]([O-])c1ccc(S(=O)(=O)Nc2cncc(Cl)n2)cc1 [Compound 3b]"
  IC50 at 24 h: "> 1000 µM"
- MOLECULE: "Cc1cc(C)cc(S(=O)(=O)Nc2cncc(Cl)n2)c1 [Compound 8b]"
  IC50 at 24 h: "523 µM"
- MOLECULE: "O=S(=O)(Nc1cnccn1)c1ccc(C(F)(F)F)cc1 [Compound 5a]"
  IC50 at 24 h: "> 1000 µM"

* * *

experiment: in vitro; details: human
Quick list: IC50 at 24 h per entry.

- MOLECULE: "O=S(=O)(Nc1cnccn1)c1ccccc1 [Compound 1a, N-(pyrazin-2-yl)benzenesulfonamide]"
  IC50 at 24 h: "> 1000 µM"
- MOLECULE: "O=S(=O)(Nc1cnccn1)c1ccc(-c2ccccc2)cc1 [Compound 12a]"
  IC50 at 24 h: "> 250 µM"
- MOLECULE: "CC(=O)Nc1ccc(S(=O)(=O)Nc2cnccn2)cc1 [Compound 2a]"
  IC50 at 24 h: "> 500 µM"
- MOLECULE: "O=S(=O)(Nc1cncc(Cl)n1)c1ccc(Br)cc1 [Compound 7b]"
  IC50 at 24 h: "308 µM"
- MOLECULE: "Nc1ccc(S(=O)(=O)Nc2cnccn2)cc1 [Compound 4a]"
  IC50 at 24 h: "776 µM"
- MOLECULE: "COc1ccc(S(=O)(=O)Nc2cnccn2)cc1 [Compound 6a]"
  IC50 at 24 h: "> 1000 µM"
- MOLECULE: "O=S(=O)(Nc1cncc(Cl)n1)c1ccccc1 [Compound 1b]"
  IC50 at 24 h: "731 µM"
- MOLECULE: "Cc1cc(C)c(S(=O)(=O)Nc2cnccn2)c(C)c1 [Compound 9a]"
  IC50 at 24 h: "> 250 µM"
- MOLECULE: "O=S(=O)(Nc1cncc(Cl)n1)c1ccc2c(c1)OCCO2 [Compound 11b]"
  IC50 at 24 h: "778 µM"
- MOLECULE: "Cc1cc(C)c(C)c(S(=O)(=O)Nc2cnccn2)c1C [Compound 10a]"
  IC50 at 24 h: "> 250 µM"
- MOLECULE: "CC(=O)Nc1ccc(S(=O)(=O)Nc2cncc(Cl)n2)cc1 [Compound 2b]"
  IC50 at 24 h: "> 500 µM"
- MOLECULE: "COc1ccc(S(=O)(=O)Nc2cncc(Cl)n2)cc1 [Compound 6b]"
  IC50 at 24 h: "> 1000 µM"
- MOLECULE: "Nc1ccc(S(=O)(=O)Nc2cncc(Cl)n2)cc1 [Compound 4b]"
  IC50 at 24 h: "> 500 µM"
- MOLECULE: "O=[N+]([O-])c1ccc(S(=O)(=O)Nc2cnccn2)cc1 [Compound 3a]"
  IC50 at 24 h: "> 1000 µM"
- MOLECULE: "O=S(=O)(Nc1cncc(Cl)n1)c1ccc(-c2ccccc2)cc1 [Compound 12b]"
  IC50 at 24 h: "302 µM"
- MOLECULE: "O=S(=O)(Nc1cncc(Cl)n1)c1ccc(C(F)(F)F)cc1 [Compound 5b]"
  IC50 at 24 h: "364 µM"

* * *

assay: physchem
PARAMETER_MEASURED: pKa

- COMPOUND: "COc1ccc(S(=O)(=O)Nc2cncc(Cl)n2)cc1 [Compound 6b]"
  PARAMETER_MEASURED: "pKa"
  RESULT: 7.21
- COMPOUND: "Cc1cc(C)c(S(=O)(=O)Nc2cncc(Cl)n2)c(C)c1 [Compound 9b]"
  PARAMETER_MEASURED: "pKa"
  RESULT: 6.38
- COMPOUND: "O=S(=O)(Nc1cncc(Cl)n1)c1ccc2ccccc2c1 [Compound 13b]"
  PARAMETER_MEASURED: "pKa"
  RESULT: 5.75

* * *

tested on: Mycobacterium aurum DSM 43999 (ATCC 23366)
Quick list: MIC per entry.

- COMPOUND: "O=S(=O)(Nc1cnccn1)c1ccc(-c2ccccc2)cc1 [Compound 12a]"
  OPERATOR_SYMBOL: "≥"
  MIC, µg/mL: 500
- COMPOUND: "Nc1ccc(S(=O)(=O)Nc2cncc(Cl)n2)cc1 [Compound 4b]"
  OPERATOR_SYMBOL: "="
  MIC, µg/mL: 250
- COMPOUND: "Cc1cc(C)c(S(=O)(=O)Nc2cnccn2)c(C)c1 [Compound 9a]"
  OPERATOR_SYMBOL: "≥"
  MIC, µg/mL: 500
- COMPOUND: "O=S(=O)(Nc1cncc(Cl)n1)c1ccc2ccccc2c1 [Compound 13b]"
  OPERATOR_SYMBOL: "="
  MIC, µg/mL: 250
- COMPOUND: "O=S(=O)(Nc1cnccn1)c1ccc(C(F)(F)F)cc1 [Compound 5a]"
  OPERATOR_SYMBOL: "="
  MIC, µg/mL: 250

* * *

assay: physchem

- COMPOUND: "Cc1cc(C)c(S(=O)(=O)Nc2cncc(Cl)n2)c(C)c1"
  pKa: 6.32
- COMPOUND: "COc1ccc(S(=O)(=O)Nc2cncc(Cl)n2)cc1"
  pKa: 6.95
- COMPOUND: "O=S(=O)(Nc1cncc(Cl)n1)c1ccc2ccccc2c1 [Compound 13b]"
  pKa: 5.63

* * *

test system: Mycobacterium aurum DSM 43999 (ATCC 23366); test: Antimycobacterial microdilution assay, M. aurum; type: cell-based; conditions: Mycolicibacterium aurum, 72 h, Middlebrook 7H9 broth, resazurin after 72 hours
Quick list: MIC per entry.

- MOLECULE: "O=S(=O)(Nc1cnccn1)c1ccc2ncccc2c1 [Compound 14a, N-(pyrazin-2-yl)quinoline-6-sulfonamide]"
  OPERATOR_SYMBOL: "≥"
  MIC, µg/mL: 500
- MOLECULE: "O=S(=O)(Nc1cncc(Cl)n1)c1ccc(Br)cc1"
  OPERATOR_SYMBOL: "="
  MIC, µg/mL: 125
- MOLECULE: "Nc1ccc(S(=O)(=O)Nc2cnccn2)cc1"
  OPERATOR_SYMBOL: "="
  MIC, µg/mL: 250
- MOLECULE: "O=[N+]([O-])c1ccc(S(=O)(=O)Nc2cncc(Cl)n2)cc1"
  OPERATOR_SYMBOL: "="
  MIC, µg/mL: 125
- MOLECULE: "Cc1cc(C)c(S(=O)(=O)Nc2cncc(Cl)n2)c(C)c1"
  OPERATOR_SYMBOL: "≥"
  MIC, µg/mL: 500

* * *

// each record: one item and its MIC for Mycobacterium aurum DSM 43999 (ATCC 23366)
PARAMETER_MEASURED: MIC

- MOLECULE: "O=S(=O)(Nc1cnccn1)c1ccccc1 [Compound 1a, N-(pyrazin-2-yl)benzenesulfonamide]"
  PARAMETER_MEASURED: "MIC"
  RESULT: "≥ 500 µg/mL"
- MOLECULE: "O=S(=O)(Nc1cncc(Cl)n1)c1ccc(-c2ccccc2)cc1 [Compound 12b]"
  PARAMETER_MEASURED: "MIC"
  RESULT: "≥ 500 µg/mL"
- MOLECULE: "O=S(=O)(Nc1cncc(Cl)n1)c1ccc(C(F)(F)F)cc1"
  PARAMETER_MEASURED: "MIC"
  RESULT: "250 µg/mL"
- MOLECULE: "CC(=O)Nc1ccc(S(=O)(=O)Nc2cnccn2)cc1"
  PARAMETER_MEASURED: "MIC"
  RESULT: "≥ 500 µg/mL"
- MOLECULE: "O=S(=O)(Nc1cncc(Cl)n1)c1ccc2c(c1)OCCO2 [Compound 11b]"
  PARAMETER_MEASURED: "MIC"
  RESULT: "≥ 500 µg/mL"
- MOLECULE: "O=S(=O)(Nc1cncc(Cl)n1)c1ccccc1"
  PARAMETER_MEASURED: "MIC"
  RESULT: "≥ 500 µg/mL"
- MOLECULE: "COc1ccc(S(=O)(=O)Nc2cnccn2)cc1"
  PARAMETER_MEASURED: "MIC"
  RESULT: "≥ 500 µg/mL"
- MOLECULE: "Cc1cc(C)cc(S(=O)(=O)Nc2cncc(Cl)n2)c1"
  PARAMETER_MEASURED: "MIC"
  RESULT: "≥ 500 µg/mL"
- MOLECULE: "O=S(=O)(Nc1cnccn1)c1ccc2c(c1)OCCO2 [Compound 11a]"
  PARAMETER_MEASURED: "MIC"
  RESULT: "250 µg/mL"
- MOLECULE: "O=C(O)c1cn(C2CC2)c2cc(N3CCNCC3)c(F)cc2c1=O"
  PARAMETER_MEASURED: "MIC"
  RESULT: "0.00781 to 0.0156 µg/mL"

Where these numbers come from: paper PMC6982817
